target.system: SMARCA2 (Homo sapiens)
Sequence (P51531 whole entry): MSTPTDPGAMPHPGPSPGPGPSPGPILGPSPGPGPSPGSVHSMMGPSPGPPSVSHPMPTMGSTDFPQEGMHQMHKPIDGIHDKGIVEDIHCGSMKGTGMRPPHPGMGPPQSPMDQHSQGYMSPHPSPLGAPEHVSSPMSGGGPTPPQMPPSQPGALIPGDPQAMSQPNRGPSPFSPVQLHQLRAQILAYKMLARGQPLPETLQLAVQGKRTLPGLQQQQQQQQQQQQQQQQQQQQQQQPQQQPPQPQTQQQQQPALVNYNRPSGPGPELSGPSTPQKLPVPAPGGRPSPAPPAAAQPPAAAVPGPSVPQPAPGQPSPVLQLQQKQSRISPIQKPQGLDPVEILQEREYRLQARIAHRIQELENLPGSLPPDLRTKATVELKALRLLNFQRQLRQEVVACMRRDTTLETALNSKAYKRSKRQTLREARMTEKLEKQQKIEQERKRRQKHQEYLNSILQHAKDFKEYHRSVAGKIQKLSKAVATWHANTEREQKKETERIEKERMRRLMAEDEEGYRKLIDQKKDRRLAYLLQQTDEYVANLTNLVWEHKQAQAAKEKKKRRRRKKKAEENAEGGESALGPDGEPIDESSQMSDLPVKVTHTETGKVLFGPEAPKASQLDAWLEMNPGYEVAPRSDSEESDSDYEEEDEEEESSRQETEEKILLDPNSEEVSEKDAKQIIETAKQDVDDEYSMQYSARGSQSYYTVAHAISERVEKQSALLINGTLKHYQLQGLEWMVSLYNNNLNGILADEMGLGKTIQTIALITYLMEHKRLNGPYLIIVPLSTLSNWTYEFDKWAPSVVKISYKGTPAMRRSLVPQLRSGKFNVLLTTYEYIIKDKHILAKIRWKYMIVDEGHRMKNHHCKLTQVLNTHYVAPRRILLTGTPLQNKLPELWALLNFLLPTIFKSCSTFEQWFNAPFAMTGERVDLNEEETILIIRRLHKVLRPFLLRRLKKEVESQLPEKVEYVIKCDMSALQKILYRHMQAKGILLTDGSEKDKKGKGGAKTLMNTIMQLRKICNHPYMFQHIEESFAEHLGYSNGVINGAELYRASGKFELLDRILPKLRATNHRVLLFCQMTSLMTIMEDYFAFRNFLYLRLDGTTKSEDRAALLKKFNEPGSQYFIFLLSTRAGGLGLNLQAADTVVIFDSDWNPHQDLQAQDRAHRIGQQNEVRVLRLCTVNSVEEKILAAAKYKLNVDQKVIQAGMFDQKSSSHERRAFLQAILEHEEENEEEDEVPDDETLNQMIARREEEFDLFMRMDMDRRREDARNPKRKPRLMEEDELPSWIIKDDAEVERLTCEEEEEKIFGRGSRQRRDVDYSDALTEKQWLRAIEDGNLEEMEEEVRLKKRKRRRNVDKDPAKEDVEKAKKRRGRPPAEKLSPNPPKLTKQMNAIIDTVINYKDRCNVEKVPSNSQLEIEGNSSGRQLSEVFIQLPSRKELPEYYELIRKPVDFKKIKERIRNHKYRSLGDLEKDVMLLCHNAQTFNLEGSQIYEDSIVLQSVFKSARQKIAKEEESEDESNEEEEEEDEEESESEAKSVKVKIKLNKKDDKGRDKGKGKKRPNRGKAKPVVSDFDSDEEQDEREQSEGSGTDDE
protocol: SMARCA2 Western blot MV4-11 degradation
Type: cell-based
assay.conditions: MV4-11, MV4-11 cells, 24 h, read-out: SMARCA2 WB MV411 degradation 24 h: Average Dmax %
property.label: Dmax

Known results for compounds:
compound: Cc1ncsc1-c1ccc(CNC(=O)[C@@H]2C[C@@H](O)CN2C(=O)[C@@H](NC(=O)[C@H]2CC[C@H](CN3CCC(n4cc(-c5cc(-c6ccccc6O)nnc5N)cn4)CC3)CC2)C(C)(C)C)cc1 [I-403]
Dmax: 70 to 90%

compound: Cn1c(=O)n(C2CCC(=O)NC2=O)c2ccc([C@H]3CC[C@@H](N4CCC(c5cnc(N6C7CCC6CN(c6cc(-c8ccccc8O)nnc6N)C7)nc5)CC4)CC3)cc21 (stereo partly drawn) [I-277]
Dmax: > 90%

Note: attention shifts to another entry.
Need Dmax, item Cc1ncsc1-c1ccc(CNC(=O)[C@@H]2C[C@@H](O)CN2C(=O)[C@@H](NC(=O)[C@H]2CC[C@H](c3cnc(N4C5CCC4CN(c4cc(-c6ccccc6O)nnc4N)C5)nc3)CC2)C(C)(C)C)cc1 [I-337]
> 90%

###

target.system: SMARCA2 (Homo sapiens)
protocol: MSD SMARCA2 degradation in A549 cell line
Type: cell-based
assay.conditions: A549 cells, 24 h, read-out: SMARCA2 MSD A549 degradation 24 h: Average external-Abs DC50
# maps each entry to its DC50

compound: Cc1ncsc1-c1ccc(CNC(=O)[C@@H]2C[C@@H](O)CN2C(=O)[C@@H](NC(=O)[C@H]2C[C@@]3(C2)C[C@H](c2cnc(N4C5CCC4CN(c4cc(-c6ccccc6O)nnc4N)C5)nc2)C3)C(C)(C)C)cc1 (some centres unmarked) [I-369]
target.system: SMARCA2 (Homo sapiens)
DC50: < 100 nM

compound: Cc1ncsc1-c1ccc(CNC(=O)[C@@H]2C[C@@H](O)CN2C(=O)[C@@H](NC(=O)[C@H]2CC[C@@H](c3nccc(N4C5CCC4CN(c4cc(-c6ccccc6O)nnc4N)C5)n3)CC2)C(C)(C)C)cc1 [I-362]
target.system: SMARCA2 (Homo sapiens)
DC50: 501 to 1000 nM

compound: Cc1ncsc1-c1ccc(CNC(=O)[C@@H]2C[C@@H](O)CN2C(=O)[C@@H](NC(=O)[C@H]2CC[C@@H](N(C)Cc3cnc(N4C5CCC4CN(c4cc(-c6ccccc6O)nnc4N)C5)nc3)CC2)C(C)(C)C)cc1 [I-371]
target.system: SMARCA2 (Homo sapiens)
DC50: 100 to 500 nM

compound: Cn1c(=O)n(C2CCC(=O)NC2=O)c2cccc(CCCOC3CCN(Cc4cccc(C#Cc5cc(NC(=O)Nc6cc(F)ncc6CO)ccn5)c4)CC3)c21 (centres unmarked) [I-315]
target.system: SMARCA2 (Homo sapiens)
DC50: > 1000 nM

Now for the compound whose DC50 we want.
Return DC50 measured with SMARCA2 (Homo sapiens) given this compound: Cn1c(=O)n(C2CCC(=O)NC2=O)c2ccc(C3CC4(C3)CC(N3CCC(c5cnc(N6C7CCC6CN(c6cc(-c8ccccc8O)nnc6N)C7)nc5)CC3)C4)cc21 (single isomer, unassigned) [I-536 (P1)]
< 100 nM

###

target.system: UniProtKB P51531
protocol: MSD SMARCA2 degradation in A549 cell line
Format: cell-based
assay.conditions: A549, A549 cells, 24 h
property.label: Dmax

Worked examples, 3 compounds total:
compound: Cc1ncsc1-c1ccc(CNC(=O)[C@@H]2C[C@@H](O)CN2C(=O)[C@@H](NC(=O)Cc2ccc(N3CCC(c4cnc(N5C6CCC5CN(c5cc(-c7ccccc7O)nnc5N)C6)nc4)CC3)cc2)C(C)(C)C)cc1 [I-513]
Dmax: 70 to 90%
--
compound: Cc1ncsc1-c1ccc(CNC(=O)[C@@H]2C[C@@H](O)CN2C(=O)[C@@H](NC(=O)C2(F)CC2)C2CCC(N(C)CCCC#Cc3cnc(N4C5CCC4CN(c4cc(-c6ccccc6O)nnc4N)C5)nc3)CC2)cc1 (some centres unmarked) [I-517]
Dmax: 50 to 70%
--
compound: Nc1nnc(-c2ccccc2O)cc1N1CC2CCC(C1)N2c1ncc(C2CCN(CCCCCCCCCNC(=O)COc3ccc4c(c3)CCCN4C(=O)CCl)CC2)cn1 [I-525]
Dmax: < 50%

So what does the record say about Dmax for Cc1ncsc1-c1ccc(CNC(=O)[C@@H]2C[C@@H](O)CN2C(=O)[C@@H](NC(=O)CN2CCC(c3cccc(C#Cc4cc(NC(=O)Nc5cc(F)ncc5CO)ccn4)c3)CC2)C(C)(C)C)cc1 [I-498] ?
< 50%

What value of measured Dmax is listed for Cc1ncsc1-c1ccc(CNC(=O)[C@@H]2C[C@@H](O)CN2C(=O)[C@@H](NC(=O)CCCCN2CCC(C(=O)N3CCC(Cn4cc(-c5cc(-c6ccccc6O)nnc5N)cn4)CC3)CC2)C(C)(C)C)cc1 [I-352] ?
< 50%
